The following compounds are listed with their measured TGI values.
- System: KM12 colon
- measurementNotes: NCI tumour cell line growth inhibition, 48 h

1) CCOC(=O)NC(NCC(O)c1ccccc1)(C(F)(F)F)C(F)(F)F (stereo not drawn)    > 100 µM

Documented TGI of Cn1c(C2CCCc3c2c2ccccc2n3C)cc2ccccc21 (stereo not drawn) : > 318 µM

Short answer for N#CNC1=NC(Cc2ccccc2)C(=O)N1CCc1c[nH]c2ccccc12 (stereo not drawn) : TGI was > 100 µM

----------
- Test system: BT-549 breast
- measurementNotes: NCI tumour cell line growth inhibition, 48 h
Below, each of the compounds is paired with its reported TGI value.

Field: example entries. Status: answers known.
1. COC(=O)C1=CC(=O)OC1(OO)c1ccc(Br)cc1 (stereo not drawn)    > 100 µM
2. CCCCc1ccc(NS(=O)(=O)c2cc3c4c(c2)CCN4C(=O)CC3)cc1    > 100 µM
3. FC(F)(F)c1ccc2c(c1)nc(-c1ccccc1)n2CC1CCCN2CCCCC12 (stereo not drawn)    34.9 µM
4. COc1ccc(Cc2c(N)[nH]c(=O)[nH]c2=O)cc1    > 100 µM

Just so you know, measured TGI for O=c1cn[nH]c2nc3ccccc3n12 came out at > 100 µM

Lab book: TGI of COC(=O)C1=C(OC(=O)/C(=C/c2ccccc2)c2ccc([N+](=O)[O-])cc2)C(C(=O)OC)[C@@]2(O)[C@@H](C(=O)OC)[C@H](C)C[C@@H]1[C@@H]2C(=O)OC (stereo partly drawn) noted as > 100 µM

Entry CCCCN1C=CCN(CCCC)C1 ; TGI = > 100 µM

Reported TGI of O=C1c2c(O)ccc(O)c2C(=O)c2c(NCCNC(=O)C(O)C(O)C(O)C(O)CO)ccc(NCCNC(=O)C(O)C(O)C(O)C(O)CO)c21 (stereo not drawn) : 2.36 µM

What the record says about CCOc1ccccc1/C=C(/C#N)C(N)=O : TGI is > 100 µM

According to the records, this compound C[Si](C)(C)CNC(=O)OCc1ccccc1 displays TGI of > 100 µM

The compound identified as COc1cc(/C=C/c2cc(/C=C/c3ccc(O)c(OC)c3)n(C(=O)Cc3ccccc3)n2)ccc1O registered its TGI at 3.93 µM

TGI for COC(=O)[C@@H]1CCc2nc3ccccc3c(=O)n21 is > 100 µM

The measured TGI associated with Cn1cc(-c2csc(-c3c[nH]c4ccc(F)cc34)n2)c2cccnc21 reads > 100 µM

Data point: CCC(=O)Nc1cccc(NC(=O)c2c(Cl)c(Cl)c(Cl)c(Cl)c2-c2nc3ccccc3[nH]2)c1 ; TGI = > 100 µM

----------
- Test system: SF-539 CNS
- measurementNotes: NCI tumour cell line growth inhibition, 48 h
reportedMetric: TGI

Use these answered entries as a reference point.
1. NCCC1([N+](=O)[O-])C=CN=CC1 (stereo unspecified)    > 100 µM
2. COc1ccc2nccc(/C=C/c3ccc(N(C)C)cc3)c2c1    > 10 µM
3. [O-][n+]1c(-c2ccccc2)oc2ccccc21    31.5 µM
4. COc1cc(Nc2ncc3c(C)nc(-c4cccc(C(F)(F)F)c4)n3n2)cc(OC)c1OC    8.34 µM

The reported TGI of the compound CN(C)C1C(CO)OC(n2cnc3c(N)ncnc32)C1O (stereo unspecified) was > 100 µM

Form: compound = Clc1ccc(N=C2c3ccccc3CN2c2ccc(Cl)cc2)cc1 ; TGI = > 100 µM
